tested on: ONS; experiment: Anti-parkinson's disease activity in human ONS cells assessed as lysosome marker intensity in cytoplasm at 5 uM by heat map analysis; type: functional, subcellular
Active and inactive are the calls of the source. The rule behind the calls is not given here.

SMILES_ENTRY: C=CCc1cc(OC)c(OC)c(OC)c1
Activity: Active
--
SMILES_ENTRY: O=C(O)c1ccc(O)cc1
Activity: Active
--
SMILES_ENTRY: C/C=C\C=C/CC/C=C/C=C/C(=O)NCC(C)C
Activity: Active

----------
tested on: ONS; test: Anti-parkinson's disease activity in human ONS cells assessed as lysosome marker intensity in inner region of cytoplasm at 5 uM by heat map analysis; format: functional, subcellular
Activity calls are given as the source filed them. The rule behind the calls is not given here.
Classes used: active, inactive

SMILES_ENTRY: CCC(=O)c1cc2c(cc1O)OCO2
GROUP: inactive

SMILES_ENTRY: c1cc2c(cc1[C@H]1OC[C@H]3[C@@H]1CO[C@H]3c1ccc3c(c1)OCO3)OCO2
GROUP: active

SMILES_ENTRY: C/C=C\CC/C=C/C=C/C(=O)NCC(C)C
GROUP: active

SMILES_ENTRY: CCC(=O)c1cc2c(cc1OC)OCO2
GROUP: inactive

SMILES_ENTRY: COc1cc(C(=O)O)ccc1O
GROUP: active

SMILES_ENTRY: C=CCc1cc2c(cc1OC)OCO2
GROUP: active

SMILES_ENTRY: c1cc2c(cc1[C@H]1OC[C@H]3[C@@H]1CO[C@@H]3c1ccc3c(c1)OCO3)OCO2
GROUP: inactive

SMILES_ENTRY: C=CCc1cc(OC)c(O)c(OC)c1
GROUP: active

SMILES_ENTRY: CCC(=O)c1ccc2c(c1)OCO2
GROUP: active

SMILES_ENTRY: COc1cc(/C=C/C(=O)O)ccc1O
GROUP: active

SMILES_ENTRY: CCC(=O)c1cc(OC)c(O)cc1O
GROUP: active

SMILES_ENTRY: C=CCc1cc(OC)c(OC)c(OC)c1
GROUP: active

SMILES_ENTRY: C/C=C\C=C/CC/C=C/C=C/C(=O)NCC(C)C
GROUP: active

SMILES_ENTRY: O=C(O)c1ccc(O)cc1
GROUP: active

SMILES_ENTRY: COc1cc([C@H]2OC[C@H]3[C@@H]2CO[C@H]3c2ccc3c(c2)OCO3)ccc1O
GROUP: inactive

SMILES_ENTRY: O=C(O)/C=C/c1ccc(O)cc1
GROUP: inactive
